The values you see were collected from paper PMC8809517.

Biological target: T1, GFP-9S library array, motif 4 ND N98Y;D124C (synthetic construct, N98Y;D124C)
T1 chain: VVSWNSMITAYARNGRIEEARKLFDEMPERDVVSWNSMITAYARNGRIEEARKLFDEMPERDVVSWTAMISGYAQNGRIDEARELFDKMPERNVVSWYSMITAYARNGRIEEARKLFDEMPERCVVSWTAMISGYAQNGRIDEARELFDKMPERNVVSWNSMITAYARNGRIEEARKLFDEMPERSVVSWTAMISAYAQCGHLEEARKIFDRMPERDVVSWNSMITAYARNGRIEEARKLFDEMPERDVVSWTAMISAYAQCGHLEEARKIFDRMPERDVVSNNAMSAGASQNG
Experiment: high-throughput RNA pulldown from lysate on Ni-NTA beads; HRP: 50 mM Tris pH 8, 150 mM NaCl, 1 mM beta-mercaptoethanol, 50 ug/ml BSA, 3 ug/ml yeast RNA, 0.5% heparin; ITC and FP: Tris pH 8, 200 mM KCl, 5% glycerol; MST: 50 mM Tris pH 8, 200 mM NaCl, 1 mM DTT, BSA, heparin, 0.05% Tween 20
Settings: tags: N-terminal His-eGFP; label: 5' Cy5
reported.endpoint: pKd
Scale: negative log10 of molar concentration, which is what pKd denotes.

Ask | Fill in the blank: the reported pKd of AUUACACGUGA (ssRNA) [Cy5-rpoA] is ____.
Reply | 6.90

Ask | Fill in the blank: the reported pKd of AUUAGACGUGA (ssRNA) [Cy5-rpoA-G] is ____.
Reply | 6.94
